Let's look at some binders and their measured IC50.
# tested.system: HLA-DR4 (human)
# measurement.description: competition
Mention the unit after the number when you answer.

Q: // returns reported IC50 for input GGGPGAGSLQPLALEGSLQK [preproinsulin C13-C32]
A: 5 µM

Q: // returns reported IC50 for input QPLALEGSLQKRGIVEQ [preproinsulin C22-A5]
A: 0.4 µM

Q: // returns reported IC50 for input GSLQPLALEGSLQKRGIV [preproinsulin C19-A3]
A: 0.5 µM

Q: // returns reported IC50 for input DLQVGQVELGGGPGAGSLQPLALE [preproinsulin C4-C27]
A: 33 µM

Cited source for all entries: patent US7049292
